- Test system: popliteal lymph node, mixed lymphocyte reaction
- experiment-notes: popliteal lymph node (PLN) test procedure (in vivo mixed lymphocyte reaction)
- Set-up: species or system C3H mice (recipients), BALB/c donors
- measurement-conditions: p.o. daily Day 0 to Day 4; ratio, rapamycin = 1.00
Provide the reported PLN (ratio) of each item.
Give bare numbers, in ratio.

Solved entries:
Prompt line: Fill blank: measured PLN (ratio) of the molecule CO[C@H]1C[C@@H]2CC[C@@H](C)[C@@](O)(O2)C(=O)C(=O)N2CCCC[C@H]2C(=O)O[C@H]([C@H](C)C[C@@H]2CC[C@@H](OC(=O)Nc3ccc(F)cc3F)[C@H](OC)C2)CC(=O)[C@H](C)/C=C(\C)[C@@H](O)[C@@H](OC)C(=O)[C@H](C)C[C@H](C)/C=C/C=C/C=C/1C is ____.
Response line: 0.72

Prompt line: Also CO[C@H]1C[C@@H]2CC[C@@H](C)[C@@](O)(O2)C(=O)C(=O)N2CCCC[C@H]2C(=O)O[C@H]([C@H](C)C[C@@H]2CC[C@@H](OC(=O)Nc3ccccc3)[C@H](OC)C2)CC(=O)[C@H](C)/C=C(\C)[C@@H](O)[C@@H](OC)C(=O)[C@H](C)C[C@H](C)/C=C/C=C/C=C/1C ?
Response line: 0.47

Now for a further molecule.
Prompt line: Fill blank: measured PLN (ratio) of the molecule CO[C@H]1C[C@@H]2CC[C@@H](C)[C@@](O)(O2)C(=O)C(=O)N2CCCC[C@H]2C(=O)O[C@H]([C@H](C)C[C@@H]2CC[C@@H](OC(=O)Nc3ccc(C(F)(F)F)cc3)[C@H](OC)C2)CC(=O)[C@H](C)/C=C(\C)[C@@H](O)[C@@H](OC)C(=O)[C@H](C)C[C@H](C)/C=C/C=C/C=C/1C is ____.
Response line: 0.90
